Assay: qHTS assay to identify small molecule antagonists of the estrogen receptor alpha (ER-alpha) signaling pathway using the BG1 cell line in the presence of 0.1 nM 17-beta-estradiol - cell viability counter screen (AID 1259241); also: nearly all actives have a fitted effect of over 40% in size
Details: VM7Luc4E2 (BG1) viability, CellTiter-Fluor protease, 22 h, 0.1 nM estradiol agonist added; series mostly up to 92.4 µM
Records with an inconclusive call do not appear. Activity calls are given as the source filed them. Calls follow the shape of the dose curve; as a rule, active = well fitted cell-killing curve with a large enough effect in the repeat runs; inconclusive = weak or mixed curves, or effect the other way; inactive = flat fitted curve, though single readings scatter.
Output constraint: value belongs to t (active), f (inactive)

query_smiles=Oc1cccc2c(O)cccc12 assigned_label=t

Identify the outcome logged in this assay for the molecule shown: "C/C=C/C(=O)OCC(C)C"
f

What outcome does the record of this test show for "CCOC(=O)[C@H](C)O" ?
f

Please share the test call associated with "SC1CCCCC1" .
f

How was "CC(C)=CCC[C@H](C)CC=O" classified in this test?
f
